- System: HeLa cells
- test_description: MTT cytotoxicity assay, HeLa
- Type: cell-based, human
- study_conditions: Homo sapiens; HeLa, 72 h exposure, MTT; read-out: IC50 HeLa 72 h
Each entry below carries its reported IC50.
Report only the number, with the unit µM understood.

As a guide, the following entries are already answered.
molecule=COc1cc(CCN/C(C)=C2/C(=O)Oc3ccccc3C2=O)ccc1O observed_result=150
molecule="C/C(NCC(O)c1ccc(O)cc1)=C1\\C(=O)Oc2ccccc2C1=O (centres unmarked)" observed_result=206
molecule=C/C(NCCc1ccc(O)cc1)=C1\C(=O)Oc2ccccc2C1=O observed_result=452
molecule=CC(NCCc1ccc(O)c(O)c1)=C1C(=O)Oc2ccccc2C1=O observed_result=92

Here is another molecule to look at.
Return reported IC50 for target or system HeLa cells, item C/C(NCC(O)c1ccc(O)c(O)c1)=C1\C(=O)Oc2ccccc2C1=O (centres unmarked) .
495

----------
- Test system: HeLa cells
- test_description: MTT cytotoxicity assay, HeLa
- Format: cell-based, human
- study_conditions: SI between HeLa and MRC-5, 72 h
measurement_kind: Selectivity index HeLa/MRC-5 72 h
Form: value (number only, do not type unit).

Before answering, review these 4 worked examples.
compound=CC(NCCc1ccc(O)c(O)c1)=C1C(=O)Oc2ccccc2C1=O measurement_kind="Selectivity index HeLa/MRC-5 72 h" observed_result=5.4
compound=C/C(NCCc1ccc(O)cc1)=C1\C(=O)Oc2ccccc2C1=O measurement_kind="Selectivity index HeLa/MRC-5 72 h" observed_result=1.1
compound=COc1cc(CCN/C(C)=C2/C(=O)Oc3ccccc3C2=O)ccc1O measurement_kind="Selectivity index HeLa/MRC-5 72 h" observed_result=3.3
compound="C/C(NCC(O)c1ccc(O)cc1)=C1\\C(=O)Oc2ccccc2C1=O (centres unmarked)" measurement_kind="Selectivity index HeLa/MRC-5 72 h" observed_result=2.4

Quick one: give measured Selectivity index HeLa/MRC-5 72 h for C/C(NCC(O)c1ccc(O)c(O)c1)=C1\C(=O)Oc2ccccc2C1=O (centres unmarked)
1
